Source: patent US6001988

targetEntity: T1, L-selectin (LS-Rg) (Homo sapiens, UniProt P14151 P14151:39-332)
T1 chain: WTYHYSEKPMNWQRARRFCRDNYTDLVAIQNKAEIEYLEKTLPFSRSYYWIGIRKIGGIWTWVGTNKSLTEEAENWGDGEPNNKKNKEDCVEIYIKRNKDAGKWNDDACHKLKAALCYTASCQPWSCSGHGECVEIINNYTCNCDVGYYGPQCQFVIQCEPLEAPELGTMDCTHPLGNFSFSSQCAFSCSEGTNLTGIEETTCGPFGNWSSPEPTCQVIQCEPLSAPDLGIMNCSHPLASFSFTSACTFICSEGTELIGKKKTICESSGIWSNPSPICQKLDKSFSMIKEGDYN
protocolSummary: filter; 4 C, HSMC; 1.5 nM at room temp
testConditions: tags: human IgG2 Fc fusion (provided by A. Varki); label: 32P
measuredEndpoint: Kd (nM)
Quick reminder: number only, in nM, skip the unit.

Challenge: Complete the entry with Kd for F13.55 (ssRNA, 2'-NH2 all C and U) RNA: GGGAGGACGAUGCGGUGUCUCUCCUGACUUUUAUUCUUAGUUCGAGCUGUCCUGGCAGACGACUCGCCCGA
Response given: 0.062
